- Target System: human Adenosine A1 receptor (Homo sapiens (Human), UniProt P30542)
- Sequence (P30542 whole entry): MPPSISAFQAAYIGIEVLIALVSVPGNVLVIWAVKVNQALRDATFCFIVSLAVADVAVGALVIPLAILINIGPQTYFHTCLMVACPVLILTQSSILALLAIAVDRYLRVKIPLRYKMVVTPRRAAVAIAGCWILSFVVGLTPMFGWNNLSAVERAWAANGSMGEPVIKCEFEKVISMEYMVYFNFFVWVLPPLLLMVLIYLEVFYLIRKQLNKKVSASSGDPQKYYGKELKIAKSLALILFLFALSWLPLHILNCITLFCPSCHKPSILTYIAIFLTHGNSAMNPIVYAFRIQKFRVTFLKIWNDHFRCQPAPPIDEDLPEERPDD
- Protocol Description: Adenosine receptor TR-FRET binding assay (A1)
- Measurement Parameters: inhibition of binding of 100 nM CA200645, CHO cell membranes
Response field label: string, one of label 1 (Ki strictly below 40 nM) or label 0.

Please review the following examples before continuing.
INSERT INTO assay_data (compound, category_label) VALUES
  ('Cc1cc(-c2sc(NC(=O)N3CC4(CCO4)C3)nc2-c2cccc(C#N)c2)cc(C)n1 [Example 6.93]', 'label 0'),
  ('Cc1cc(-c2sc(NC(=O)N3CCN[C@@H](C(F)(F)F)C3)nc2-c2cccc(C#N)c2)cc(C)n1 [Example 13.13]', 'label 1'),
  ('Cc1cc(-c2sc(NC(=O)N3CC[C@@](C)(C#N)C3)nc2-c2cccc(C#N)c2)cc(C)n1 [Example 27a]', 'label 1'),
  ('Cc1cc(-c2sc(NC(=O)N3CC[S+]([O-])CC3)nc2-c2cccc(C#N)c2)cc(C(F)(F)F)n1 [Example 16.2]', 'label 1'),
  ('Cc1cc(-c2sc(NC(=O)N3CC[C@H](C(=O)O)C3)nc2-c2cccc(C#N)c2)cc(C)n1 [Example 6.63]', 'label 0'),
  ('Cc1cc(-c2sc(NC(=O)N3CCC4(CC3)CN(C)C(=O)N4)nc2-c2cccc(C#N)c2)cc(C)n1 [Example 6.103]', 'label 0'),
  ('Cc1cc(-c2sc(NC(=O)N3CCN4C(=O)OCC4C3)nc2-c2cccc(C#N)c2)cc(C)n1 (stereo not drawn) [Example 6.13]', 'label 1'),
  ('Cc1cc(-c2sc(NC(=O)N3CCN[C@H](C)C3)nc2-c2cccc(C#N)c2)cc(C(F)(F)F)n1 [Example 14]', 'label 0'),
  ('Cc1cc(-c2sc(NC(=O)N3CC[C@](C)(C#N)C3)nc2-c2cccc(C#N)c2)cc(C)n1 [Example 27b]', 'label 1'),
  ('Cc1cc(-c2sc(NC(=O)N3CCN(S(N)(=O)=O)CC3)nc2-c2cccc(C#N)c2)cc(C)n1 [Example 4.19]', 'label 0');

q: Strictly below 40 nM: is that where Ki of Cc1cc(-c2sc(NC(=O)N3CC4(COC4)C3)nc2-c2cccc(C#N)c2)cc([C@@H](C)O)n1 (single isomer, unassigned) [Example 12.3a] sits?
a: label 1

q: Try this compound too: Cc1cc(-c2sc(NC(=O)N3CC[C@H](C(N)=O)C3)nc2-c2cccc(C#N)c2)cc(C)n1 [Example 6.3]
a: label 1

q: Next entry: Cc1cc(-c2sc(NC(=O)N3CCC4(CC3)CNC(=O)N4)nc2-c2cccc(C#N)c2)cc(C)n1 [Example 6.11]
a: label 0

q: And what about the compound Cc1cc(-c2sc(NC(=O)N3CCNCC3(C)C)nc2-c2cccc(C#N)c2)cc(C)n1 [Example 7.9] ?
a: label 0

---

What log10(Ki) was measured for each of the following?
- Target System: human Adenosine A2a receptor (Homo sapiens (Human))
- Sequence (P29274 whole entry): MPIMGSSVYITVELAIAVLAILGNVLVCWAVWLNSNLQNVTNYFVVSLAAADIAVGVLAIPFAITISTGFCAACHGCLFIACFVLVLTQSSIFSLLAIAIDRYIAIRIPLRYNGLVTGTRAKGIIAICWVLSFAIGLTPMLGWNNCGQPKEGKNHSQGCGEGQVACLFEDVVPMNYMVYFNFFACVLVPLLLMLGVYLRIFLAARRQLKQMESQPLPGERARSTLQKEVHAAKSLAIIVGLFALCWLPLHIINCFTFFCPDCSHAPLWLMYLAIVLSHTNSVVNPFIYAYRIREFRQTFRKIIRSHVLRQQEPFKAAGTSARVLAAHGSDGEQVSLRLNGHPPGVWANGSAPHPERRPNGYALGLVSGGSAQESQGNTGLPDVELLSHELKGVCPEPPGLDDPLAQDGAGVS
Structures can show the parent of a compound that is named as a salt.
Remember, log10 of Ki, in nM.

INSERT INTO assay_data (molecule, observed_property, value_measured) VALUES
  ('Cc1cc(-c2sc(NC(=O)N3CCC4(CNCCO4)C3)nc2-c2cccc(C#N)c2)cc(C)n1 (stereo not drawn)', 'log10(Ki)', -0.08),
  ('Cc1cc(-c2sc(NC(=O)N3CCS(=N)(=O)CC3)nc2-c2cccc(C#N)c2)cc(Cl)n1', 'log10(Ki)', -0.60),
  ('Cc1cc(-c2sc(NC(=O)N3CCC(F)(C#N)CC3)nc2-c2cccc(C#N)c2)cc(C)n1', 'log10(Ki)', -1.30),
  ('Cc1cc(-c2sc(NC(=O)N3[C@H](C)CNC[C@H]3C)nc2-c2cccc(C#N)c2)cc(C)n1', 'log10(Ki)', 0.83),
  ('Cc1cc(-c2sc(NC(=O)N3CCC4(CCN(C)C4=O)CC3)nc2-c2cccc(C#N)c2)cc(C)n1', 'log10(Ki)', 0.16);

Would you mind listing log10(Ki) for each of the following molecules?
1. Cc1cc(-c2sc(NC(=O)N3CCN4C(=O)CN(C)C(=O)C4C3)nc2-c2cccc(C#N)c2)cc(C)n1 (stereo not drawn)
2. Cc1cc(-c2sc(NC(=O)N3CCN(C4CCOCC4)CC3)nc2-c2cccc(C#N)c2)cc(C)n1 [Example 6.113, diformate salt]
3. Cc1cc(-c2sc(NC(=O)N3CCN4C(=O)COCC4C3)nc2-c2cccc(C#N)c2)cc(C)n1 (stereo not drawn)
4. Cc1cc(-c2sc(NC(=O)N3CC[C@H](O)C3)nc2-c2cccc(C#N)c2)cc(C)n1
5. Cc1cc(-c2sc(NC(=O)N3CCC4(COC4)C3)nc2-c2cccc(C#N)c2)cc(C)n1
6. Cc1cc(-c2sc(NC(=O)N3CC(C)(O)C3)nc2-c2cccc(C#N)c2)cc(C)n1
7. Cc1cc(-c2sc(NC(=O)N3CCC(c4ncno4)CC3)nc2-c2cccc(C#N)c2)cc(C)n1
8. Cc1cc(-c2sc(NC(=O)N3CCC4(CCNC(=O)C4)CC3)nc2-c2cccc(C#N)c2)cc(C)n1

a:
1. 1.00
2. 1.03
3. 0.26
4. 0.19
5. -0.33
6. -0.85
7. 0.18
8. -0.10

Parameter requested: log10(Ki). Apply to each item below.
1. Cc1cc(-c2sc(NC(=O)N3CCC4(CCOC4)C3)nc2-c2cccc(C#N)c2)cc(C)n1 (stereo not drawn)
2. Cc1cc(-c2sc(NC(=O)N3CC[C@H](C(C)(C)O)C3)nc2-c2cccc(C#N)c2)cc(C)n1
3. Cc1cc(-c2sc(NC(=O)N3CCN[C@H](C)C3)nc2-c2cccc(C#N)c2)cc(Cl)n1
4. Cc1cc(-c2sc(NC(=O)N3CCC(CN4CCOCC4)CC3)nc2-c2cccc(C#N)c2)cc(C)n1 [Example 6.116, formate salt]

a:
-0.10
0.05
-0.03
0.87

Please look at the items below and tell me log10(Ki) for each one, in order.
1. Cc1cc(-c2sc(NC(=O)N3CCO[C@H](CO)C3)nc2-c2cccc(C#N)c2)cc(C)n1
2. Cc1cc(-c2sc(NC(=O)N3CCN4CCS(=O)(=O)CC4C3)nc2-c2cccc(C#N)c2)cc(C)n1 (stereo not drawn)
3. Cc1cc(-c2sc(NC(=O)N3CCC4(CC3)CNCCO4)nc2-c2cccc(C#N)c2)cc(C)n1
4. Cc1cc(-c2sc(NC(=O)N3CC[C@](C)(C#N)C3)nc2-c2cccc(C#N)c2)cc(C)n1 [Example 27b]
5. Cc1cc(-c2sc(NC(=O)N3CC4CCC(C3)N4)nc2-c2cccc(C#N)c2)cc(C)n1
6. Cc1cc(-c2sc(NC(=O)N3CCN[C@@H](C#N)C3)nc2-c2cccc(C#N)c2)cc(C)n1
7. Cc1cc(-c2sc(NC(=O)N3CCC(C#N)(C#N)CC3)nc2-c2cccc(C#N)c2)cc(CO)n1
8. CC(=O)NCc1cc(-c2sc(NC(=O)N3CC4(COC4)C3)nc2-c2cccc(C#N)c2)cc(C)n1

a:
[-0.52, -0.22, 0.01, -0.85, 1.11, -0.48, -0.43, 0.84]

Please state log10(Ki) for every molecule in the list that follows.
1. Cc1cc(-c2sc(NC(=O)N3CCC(c4ncon4)CC3)nc2-c2cccc(C#N)c2)cc(C)n1
2. Cc1cc(-c2sc(NC(=O)N3CC(C#N)C3)nc2-c2cccc(C#N)c2)cc(C)n1
3. CC(=O)N=S1(=O)CCN(C(=O)Nc2nc(-c3cccc(C#N)c3)c(-c3cc(C)nc(C)c3)s2)CC1
4. Cc1cc(-c2sc(NC(=O)N3CCN4C(=O)OCC4C3)nc2-c2cccc(C#N)c2)cc(C)n1 (stereo not drawn)
5. Cc1cc(-c2sc(NC(=O)N3C4CCC3CNC4)nc2-c2cccc(C#N)c2)cc(C)n1

a:
-0.42
-1.30
0.26
-0.40
0.44

Data origin, for the record: patent US20230293517A1
